Test system: Ruminococcus gnavus DSM 108212
Assay: growth (OD595) fold change vs plate DMSO controls (fold change (ratio)); higher = more growth
Settings: incubation time: 27 h, anaerobic, 37 °C
observation_type: growth
One number for each entry.

- molecule: "CCN(CC)C(=O)c1ccc(O)c(OC)c1 [Ethamivan] (20 µM)"
  observation_type: "growth"
  value_observed: 0.873
- molecule: "O=C(Nc1cccc2c(=O)cc(-c3nnn[nH]3)oc12)c1ccc(OCCCCc2ccccc2)cc1 [Pranlukast] (20 µM)"
  observation_type: "growth"
  value_observed: 0.934
- molecule: "CC(=O)OC[C@H]1O[C@@H](n2ncc(=O)[nH]c2=O)[C@H](OC(C)=O)[C@@H]1OC(C)=O [Azaribine] (20 µM)"
  observation_type: "growth"
  value_observed: 1.18
- molecule: "c1ccc2cc3ccccc3cc2c1 [Anthracene] (20 µM)"
  observation_type: "growth"
  value_observed: 0.985
- molecule: "CC=C(C)C(=O)OC1C(OC(C)=O)C2(CO)C(O)CC3(C)C(=CCC4C5(C)CCC(OC6OC(C(=O)O)C(OC7OC(CO)C(O)C(O)C7O)C(O)C6OC6OC(CO)C(O)C(O)C6O)C(C)(CO)C5CCC43C)C2CC1(C)C (stereo not drawn) [Beta-Escin] (20 µM)"
  observation_type: "growth"
  value_observed: 1.01

Your task in this section: give growth for each listed record.
1. O=C(O)c1ccccc1OP(=O)(O)O [Fosfosal] (20 µM)
2. CC(C)Cc1ccc(C(C)C(=O)OCc2ccccn2)cc1 (configuration not stated) [Ibuprofen Piconol] (20 µM)

1: 1.17; 2: 1.13

###

Tested on: Ruminococcus gnavus DSM 108212
Assay: fold change of 2-Phenylethylamine concentration vs plate DMSO controls (fold change (ratio)); higher = more amine produced, active = hit call of the paper (significant change in both replicates, either direction)
Conditions: incubation time: 27 h, anaerobic, 37 °C
Structures can show the parent of a compound that is named as a salt.
Exercise: state measured fold change of 2-Phenylethylamine concentration for each of the molecules provided.
Give bare numbers.

Answered examples (3):
- molecule: "CCOC1O[C@H]([C@@H](COCc2ccccc2)OCc2ccccc2)[C@H](OCc2ccccc2)[C@H]1O (some centres not stated) [Tribenoside] (20 µM)"
  value_observed: 0.961
- molecule: "CC(=O)OCC(CCn1cnc2cnc(N)nc21)COC(C)=O [Famciclovir] (20 µM)"
  value_observed: 1.04
- molecule: "CC(C)c1nc(CN(C)C(=O)N[C@H](C(=O)N[C@@H](Cc2ccccc2)C[C@H](O)[C@H](Cc2ccccc2)NC(=O)OCc2cncs2)C(C)C)cs1 [Ritonavir] (20 µM)"
  value_observed: 0.939

Your task in this section: give fold change of 2-Phenylethylamine concentration for each listed record.
1. OC[C@H]1O[C@H](O[C@H]2O[C@H](CO)[C@@H](O)[C@H](O)[C@H]2O)[C@H](O)[C@@H](O)[C@@H]1O [Trehalose] (50 µM)
2. NC(=O)N1c2ccccc2CC(=O)c2ccccc21 [Oxcarbazepine] (20 µM)
3. CCCCOc1cc(C(=O)OCCN(CC)CC)ccc1N [Benoxinate hydrochloride] (20 µM)
4. OC[C@H](O)C(O)[C@@H](O)CO [L-Arabinitol] (50 µM)

[1.15, 1.01, 1.04, 0.908]

###

Test system: Klebsiella aerogenes DSM 30053
Assay: fold change of Putrescine concentration vs plate DMSO controls (fold change (ratio)); higher = more amine produced, active = hit call of the paper (significant change in both replicates, either direction)
Details: incubation time: 27 h, anaerobic, 37 °C
Where a name gives a salt, the structure may show the parent alone.
I would appreciate it if you labelled entries Condition met when fold change of Putrescine concentration is 1 or higher, otherwise Condition not met.

- compound: "CN[C@@H]1[C@H](O)[C@H](NC)[C@H]2O[C@@]3(O)C(=O)C[C@@H](C)O[C@H]3O[C@@H]2[C@H]1O [Spectinomycin dihydrochloride] (20 µM)"
  class_assignment: "Condition met"

Hello, I need to know if C[C@@H](O)[C@H]1C(=O)N2C(C(=O)O)=C(SCCNC=N)C[C@H]12 [Imipenem] (20 µM) has measured fold change of Putrescine concentration not below 1. Thanks!
Condition met

Hello, I need to know if N#CC(c1ccc(Cl)cc1)c1c(Cl)cc(-n2ncc(=O)[nH]c2=O)cc1Cl (stereo unspecified) [Diclazuril] (20 µM) has measured fold change of Putrescine concentration not below 1. Thanks!
Condition not met
